These data points were gathered from patent US20260234159A1.

- measurement-description: In vivo toxicological study in rats: haematology
- Parameters: species or system rats of the Wistar strain
- condition-parameters: male, 300 mg/kg oral daily 7 d
experimental-endpoint: LYM

The cases that follow already have their LYM on record.
{"columns": ["structure-notation", "observed-result"],
 "data": [
  ["N#Cc1c(NC(=O)c2cccc3ccccc23)sc2c1CCN(CC(=O)Nc1cccc(Br)c1)C2", "7.0 10^9/l"],
  ["N#Cc1c(NC(=O)c2cccc3ccccc23)sc2c1CCN(C(=O)Nc1ccccc1OC(F)(F)F)C2", "4.6 10^9/l"],
  ["COc1ccccc1NC(=O)N1CCc2c(sc(NC(=O)c3cccc4ccccc34)c2C#N)C1", "5.8 10^9/l"]
]}

Consider now this further compound.
According to the records, this compound COc1ccc(C(=O)Nc2sc3c(c2C#N)CCCCC3)cc1OC displays LYM of 6.2 10^9/l

====

- measurement-description: In vivo toxicological study in rats: haematology
- Parameters: species or system rats of the Wistar strain
- condition-parameters: male, 100 mg/kg oral daily 7 d
Below is a list of entries, each paired with its recorded RBC value.

Previously resolved entries follow.
{"columns": ["compound", "observed-result"],
 "data": [
  ["COc1ccc(C(=O)Nc2sc3c(c2C#N)CCCCC3)cc1OC [PKL-A135]", "7.43 10^12/l"],
  ["N#Cc1c(NC(=O)c2cccc3ccccc23)sc2c1CCN(CC(=O)Nc1cccc(Br)c1)C2 [PKL-B171]", "7.57 10^12/l"],
  ["COc1ccccc1NC(=O)N1CCc2c(sc(NC(=O)c3cccc4ccccc34)c2C#N)C1 [PKL-A152]", "7.63 10^12/l"]
]}

Note to self: RBC recorded for N#Cc1c(NC(=O)c2cccc3ccccc23)sc2c1CCN(C(=O)Nc1ccccc1OC(F)(F)F)C2 [PKL-A159] was 7.51 10^12/l

====

- measurement-description: In vivo toxicological study in rats: haematology
- Set-up: species or system rats of the Wistar strain
- condition-parameters: female, 300 mg/kg oral daily 7 d
Listing of recorded MONO by entry.

Sample records with MONO:
{"columns": ["structure-notation", "MONO"],
 "data": [
  ["N#Cc1c(NC(=O)c2cccc3ccccc23)sc2c1CCN(CC(=O)Nc1cccc(Br)c1)C2", "0.17 10^9/l"],
  ["COc1ccc(C(=O)Nc2sc3c(c2C#N)CCCCC3)cc1OC", "0.20 10^9/l"],
  ["N#Cc1c(NC(=O)c2cccc3ccccc23)sc2c1CCN(C(=O)Nc1ccccc1OC(F)(F)F)C2", "0.17 10^9/l"]
]}

Let us move to another entry and its MONO.
Looking up COc1ccccc1NC(=O)N1CCc2c(sc(NC(=O)c3cccc4ccccc34)c2C#N)C1 , I see its MONO listed as 0.23 10^9/l

====

- measurement-description: In vivo toxicological study in rats: haematology
- Parameters: species or system rats of the Wistar strain
- condition-parameters: female, 100 mg/kg oral daily 7 d
experimental-endpoint: GRAN

{"columns": ["structure-notation", "observed-result"],
 "data": [
  ["N#Cc1c(NC(=O)c2cccc3ccccc23)sc2c1CCN(C(=O)Nc1ccccc1OC(F)(F)F)C2", "0.77 10^9/l"],
  ["COc1ccc(C(=O)Nc2sc3c(c2C#N)CCCCC3)cc1OC", "1.33 10^9/l"],
  ["N#Cc1c(NC(=O)c2cccc3ccccc23)sc2c1CCN(CC(=O)Nc1cccc(Br)c1)C2", "0.77 10^9/l"]
]}

Now turn to the next compound.
Per the record, COc1ccccc1NC(=O)N1CCc2c(sc(NC(=O)c3cccc4ccccc34)c2C#N)C1 has GRAN of 1.20 10^9/l
